Pigweed plant response rating reference
- Tested on: pigweed
- MEASUREMENT NOTES: Test C pre-/postemergence test
- Type: in vivo, Amaranthus retroflexus
- CONDITION NOTES: 62 g ai/ha, Preemergence; scale 0 to 100

Use the examples below as a reference point.
- COMPOUND: "CC(c1c(C(F)(F)F)nn(C)c1OCC(F)(F)F)S(=O)(=O)c1cccc[n+]1[O-] (racemic)"
  OUTCOME MEASURE: "Pigweed plant response rating"
  VALUE OBSERVED: 100
- COMPOUND: "C#CCOc1c(C[S+]([O-])c2cccc[n+]2[O-])c(C(F)(F)F)nn1C (stereo not shown)"
  OUTCOME MEASURE: "Pigweed plant response rating"
  VALUE OBSERVED: 80
- COMPOUND: "Cc1cc[n+]([O-])c(S(=O)(=O)Cc2c(C(F)(F)F)nn(C)c2OCC(F)(F)F)c1"
  OUTCOME MEASURE: "Pigweed plant response rating"
  VALUE OBSERVED: 100

Reported Pigweed plant response rating (pigweed) for entry Cn1nc(C(F)(F)F)c(C[S+]([O-])c2cc(Br)cc[n+]2[O-])c1Cl (racemic) is 100

Reported Pigweed plant response rating (pigweed) for entry Cc1cc[n+]([O-])c(S(=O)(=O)C(Cl)c2c(C(F)(F)F)nn(C)c2OCC(F)(F)F)c1 (racemic) is 100

Reported Pigweed plant response rating (pigweed) for entry CCn1nc(C(F)(F)F)c(CS(=O)(=O)c2cccc[n+]2[O-])c1OCC(F)(F)F is 100

Reported Pigweed plant response rating (pigweed) for entry CC(Oc1c(C[S+]([O-])c2cccc[n+]2[O-])c(C(F)(F)F)nn1C)C(F)(F)F (stereo not shown) is 100

Reported Pigweed plant response rating (pigweed) for entry Cn1nc(C(F)(F)F)c(CS(=O)(=O)c2cccc[n+]2[O-])c1OCC(F)(F)F is 100

Reported Pigweed plant response rating (pigweed) for entry CCc1cc[n+]([O-])c(S(=O)(=O)Cc2c(C(F)(F)F)nn(C)c2OC(F)F)c1 is 95

Reported Pigweed plant response rating (pigweed) for entry Cn1nc(C(F)(F)F)c(C[S+]([O-])c2ccc(F)c[n+]2[O-])c1OC(F)F (stereo not shown) is 100
